Where do the numbers come from? From patent US20200297760A1.

Biological target: HLA-A*02:01 (Homo sapiens, UniProt P04439, D140Y/D185E/D98H/E176V/E277Q/G131W/G231S/I119V/I121R/I166T/I218V/L300P/L318F/N151K/N90K/P208A/P217A/Q86G/Q94H/R138H/R169H/T345S)
Assay: REVEAL Epitope Discovery System in vitro MHC-peptide binding assay
Conditions: binding normalized to positive control peptide set at 100%, greater than 50 considered good or high affinity binding
Procedure: Actual binding affinities for certain HLA class I alleles (A*02:01, A*03:01, A*11:01, and B*08:01) were assessed in vitro for exemplary overlapping 9 amino acid peptide sequences within a portion of the 26 amino acid junction region spanning the CD28 and 4-1BB junction. […] In addition, a series of overlapping 9-mer peptides of each of a number of different variants of this portion also were assessed, each variant containing a mutation or mutations in this region as described in Example 2. […]
No end group written: not given here.
Property Measured: A*02:01 In Vitro Score

[[record]]
query_sequence = "IFWVKRGAK"
recorded_measurement = 13.80

[[record]]
query_sequence = "WVKRGRKKL"
recorded_measurement = 1.40

[[record]]
query_sequence = "WVKRGAKKL"
recorded_measurement = 4.70

[[record]]
query_sequence = "FIIFWVLRG"
recorded_measurement = 7.20

[[record]]
query_sequence = "FWVQRGNKK"
recorded_measurement = 3.10


(P) IFWVQRGAK
(Q) WVKRGNKKL
(R) WVKRGLKKL
(S) IFWVSRGRK
Hi! Can you put these in order of A*02:01 In Vitro Score, lowest number first? // ordering of labels required in reply
S, Q, P, R
(S: 1.30, Q: 2.40, P: 11.70, R: 24.50)

(a) FWVLRGRKK
(b) AFIIFWVLR
Dear colleague, could you let me know whether a or b has the lower recorded A*02:01 In Vitro Score? Thanks. Pick one; state its label.
a

(1) WVQRGAKKL
(2) AFIIFWVQR
(3) WVQRGNKKA
(4) IIFWVQRGN
(5) FIIFWVHRG
Please list the entries, largest A*02:01 In Vitro Score first. Rank the items, then write their labels in that order.
5, 4, 1, 3, 2
(5: 37.30, 4: 13.00, 1: 3.00, 3: 1.90, 2: 0.40)

###

molecular target: HLA-B*08:01 (Homo sapiens, UniProt P01889, A93T/A95T/D138N/E176V/E187T/K202T/Q94N/R180D/S35A/V36M/Y33D/Y91F); assay: REVEAL Epitope Discovery System in vitro MHC-peptide binding assay; settings: binding normalized to positive control peptide set at 100%, >50 considered good or high affinity binding
Property Measured: B*08:01 In Vitro Score

Worked cases, answers included:
[[record]]
chemical_structure = "CC(C)C[C@H](NC(=O)CNC(=O)[C@H](CCCNC(=N)N)NC(=O)[C@H](CCCCN)NC(=O)[C@@H](NC(=O)[C@H](Cc1c[nH]c2ccccc12)NC(=O)[C@@H](N)Cc1ccccc1)C(C)C)C(=O)N[C@@H](CCCCN)C(=O)N[C@@H](CCCCN)C(=O)O"
property_measured = "B*08:01 In Vitro Score"
recorded_measurement = 6.30

[[record]]
chemical_structure = "CC[C@H](C)[C@H](NC(=O)[C@H](Cc1ccccc1)NC(=O)[C@H](C)N)C(=O)N[C@H](C(=O)N[C@@H](Cc1ccccc1)C(=O)N[C@@H](Cc1c[nH]c2ccccc12)C(=O)N[C@H](C(=O)N[C@@H](CCCNC(=N)N)C(=O)N[C@@H](CCCNC(=N)N)C(=O)O)C(C)C)[C@@H](C)CC"
property_measured = "B*08:01 In Vitro Score"
recorded_measurement = 0.30

[[record]]
chemical_structure = "CC(C)C[C@H](NC(=O)[C@H](CCCCN)NC(=O)[C@H](CCCCN)NC(=O)[C@H](CCCNC(=N)N)NC(=O)CNC(=O)[C@H](CCCNC(=N)N)NC(=O)[C@H](CCC(N)=O)NC(=O)[C@@H](NC(=O)[C@@H](N)Cc1c[nH]c2ccccc12)C(C)C)C(=O)O"
property_measured = "B*08:01 In Vitro Score"
recorded_measurement = 45.10

[[record]]
chemical_structure = "CC[C@H](C)[C@H](N)C(=O)N[C@H](C(=O)N[C@@H](Cc1ccccc1)C(=O)N[C@@H](Cc1c[nH]c2ccccc12)C(=O)N[C@H](C(=O)N[C@@H](CCCCN)C(=O)N[C@@H](CCCNC(=N)N)C(=O)NCC(=O)N[C@@H](CC(N)=O)C(=O)O)C(C)C)[C@@H](C)CC"
property_measured = "B*08:01 In Vitro Score"
recorded_measurement = 0.90

[[record]]
chemical_structure = "CC[C@H](C)[C@H](N)C(=O)N[C@H](C(=O)N[C@@H](Cc1ccccc1)C(=O)N[C@@H](Cc1c[nH]c2ccccc12)C(=O)N[C@H](C(=O)N[C@@H](CC(C)C)C(=O)N[C@@H](CCCNC(=N)N)C(=O)NCC(=O)N[C@@H](CCCNC(=N)N)C(=O)O)C(C)C)[C@@H](C)CC"
property_measured = "B*08:01 In Vitro Score"
recorded_measurement = 0.40


(A) CC[C@H](C)[C@H](N)C(=O)N[C@H](C(=O)N[C@@H](Cc1ccccc1)C(=O)N[C@@H](Cc1c[nH]c2ccccc12)C(=O)N[C@H](C(=O)N[C@@H](C)C(=O)N[C@@H](CCCNC(=N)N)C(=O)NCC(=O)N[C@@H](CCCNC(=N)N)C(=O)O)C(C)C)[C@@H](C)CC
(B) CC[C@H](C)[C@H](N)C(=O)N[C@@H](Cc1ccccc1)C(=O)N[C@@H](Cc1c[nH]c2ccccc12)C(=O)N[C@H](C(=O)N[C@@H](CCCCN)C(=O)N[C@@H](CCCNC(=N)N)C(=O)NCC(=O)N[C@@H](CC(N)=O)C(=O)N[C@@H](CCCCN)C(=O)O)C(C)C
(C) CC[C@H](C)[C@H](N)C(=O)N[C@@H](Cc1ccccc1)C(=O)N[C@@H](Cc1c[nH]c2ccccc12)C(=O)N[C@H](C(=O)N[C@@H](CCCCN)C(=O)N[C@@H](CCCNC(=N)N)C(=O)NCC(=O)N[C@@H](Cc1c[nH]cn1)C(=O)N[C@@H](CCCCN)C(=O)O)C(C)C
(D) CC(C)[C@H](NC(=O)[C@@H](N)Cc1c[nH]c2ccccc12)C(=O)N[C@@H](CCC(N)=O)C(=O)N[C@@H](CCCNC(=N)N)C(=O)NCC(=O)N[C@@H](CC(N)=O)C(=O)N[C@@H](CCCCN)C(=O)N[C@@H](CCCCN)C(=O)N[C@@H](CO)C(=O)O
(E) CC(C)C[C@H](NC(=O)[C@H](CCCCN)NC(=O)[C@H](CCCCN)NC(=O)[C@H](CCCNC(=N)N)NC(=O)CNC(=O)[C@H](CCCNC(=N)N)NC(=O)[C@H](C)NC(=O)[C@@H](NC(=O)[C@@H](N)Cc1c[nH]c2ccccc12)C(C)C)C(=O)O
Reorder: B*08:01 In Vitro Score, max to min. Output the labels ranked as instructed.
E, C, A, B, D

(P) CC(C)[C@H](NC(=O)[C@H](Cc1c[nH]c2ccccc12)NC(=O)[C@@H](N)Cc1ccccc1)C(=O)N[C@@H](CCCCN)C(=O)N[C@@H](CCCNC(=N)N)C(=O)NCC(=O)N[C@@H](CC(N)=O)C(=O)N[C@@H](CCCCN)C(=O)N[C@@H](CCCCN)C(=O)O
(Q) CC[C@H](C)[C@H](N)C(=O)N[C@H](C(=O)N[C@@H](Cc1ccccc1)C(=O)N[C@@H](Cc1c[nH]c2ccccc12)C(=O)N[C@H](C(=O)N[C@@H](CCCCN)C(=O)N[C@@H](CCCNC(=N)N)C(=O)NCC(=O)N[C@@H](CO)C(=O)O)C(C)C)[C@@H](C)CC
Returns: the label, P or Q , whose recorded B*08:01 In Vitro Score is the lower number. Could you answer with the label of the item you picked?
P
